Tested on: 233499-124-R-J3-PDC complex spheroid growth;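 also: spheroids exposed to agents for seven days before reading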
Test: Anticancer human tumor 233499-124-R-J3-PDC patient-derived colon adenocarcinoma cell line growth inhibition [AhR]
Conditions: second compound 1 µM; first compound 0.0949 µM; stronger effect = lower value

[
  {
    "Compound": "CCc1c2c(nc3ccc(O)cc13)-c1cc3c(c(=O)n1C2)COC(=O)[C@]3(O)CC + Cc1cncc(-c2nc(NCCc3c[nH]c4ccccc34)c3ncn(C(C)C)c3n2)c1",
    "viability, T/C, %": 94.3
  },
  {
    "Compound": "Nc1ncn(C2CC(O)C(CO)S2)c(=O)n1 (stereo not given) + CC(CO)NC(=O)c1cc(-c2ccc(Cl)cc2)nn(-c2cnn(C)c2)c1=O",
    "viability, T/C, %": 106
  },
  {
    "Compound": "Nc1ncn(C2CC(O)C(CO)S2)c(=O)n1 (stereo not given) + Cc1cncc(-c2nc(NCCc3c[nH]c4ccccc34)c3ncn(C(C)C)c3n2)c1",
    "viability, T/C, %": 89.1
  },
  {
    "Compound": "CC(C)CC(NC(=O)C(Cc1ccccc1)NC(=O)c1cnccn1)B(O)O (stereo not given) + Cc1cncc(-c2nc(NCCc3c[nH]c4ccccc34)c3ncn(C(C)C)c3n2)c1",
    "viability, T/C, %": 0.05
  },
  {
    "Compound": "CCc1c2c(nc3ccc(O)cc13)-c1cc3c(c(=O)n1C2)COC(=O)[C@]3(O)CC + CC(CO)NC(=O)c1cc(-c2ccc(Cl)cc2)nn(-c2cnn(C)c2)c1=O",
    "viability, T/C, %": 57.9
  }
]
